These entries and their values trace back to paper PMC5607274.

- STUDY SYSTEM: human recombinant Yes [a.a. 2–543 (end)] (Homo sapiens, UniProt P07947)
- Construct: human recombinant Yes [a.a; 2–543 (end)]; purchased BPS Bioscience 40488
- Sequence (P07947 2-543): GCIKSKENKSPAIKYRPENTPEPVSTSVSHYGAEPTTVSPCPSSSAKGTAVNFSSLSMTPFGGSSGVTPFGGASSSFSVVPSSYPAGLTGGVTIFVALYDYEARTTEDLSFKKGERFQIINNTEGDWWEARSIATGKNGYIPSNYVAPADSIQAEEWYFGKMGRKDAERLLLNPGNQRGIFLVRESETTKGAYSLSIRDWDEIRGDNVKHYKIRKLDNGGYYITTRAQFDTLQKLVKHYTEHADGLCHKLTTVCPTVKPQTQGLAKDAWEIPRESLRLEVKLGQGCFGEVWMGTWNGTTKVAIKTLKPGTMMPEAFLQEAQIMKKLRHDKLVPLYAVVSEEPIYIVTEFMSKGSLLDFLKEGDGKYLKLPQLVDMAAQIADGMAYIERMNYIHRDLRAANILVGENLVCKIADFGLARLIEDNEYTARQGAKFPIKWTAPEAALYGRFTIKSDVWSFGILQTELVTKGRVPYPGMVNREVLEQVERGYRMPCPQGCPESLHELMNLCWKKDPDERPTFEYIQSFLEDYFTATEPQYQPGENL
- PROCEDURE DETAILS: ADP-Glo kinase assay, inhibition rates of Yes phosphorylation activity (first and second screening)
- Format: biochemical
- CONDITION SET: first screening; mean of n = 4 wells; 10 μmol L−1 compound
# First screening IR (inhibition rate) values compiled below
READOUT: First screening IR (inhibition rate) (%)

> print(dat)
                                    compound                               readout  unit.name  endpoint.result
 1  O=C(NC1(C(F)(F)F)Oc2ccccc2O1)Sc1ccccc1 [Compound Z56864837]  First screening IR (inhibition rate)          %               42
 2  CCOC(=O)c1ccc(-n2c(O)c(C=NCc3ccccn3)c3ccccc3c2=O)cc1 [Compound Z31275874]  First screening IR (inhibition rate)          %              -12
 3  CCCCN(C1CCS(=O)(=O)C1)S(=O)(=O)c1ccc(Br)cc1Cl (stereo not shown) [Compound Z223263980]  First screening IR (inhibition rate)          %                5
 4  COc1cc(CNC(=O)C2CCCN2C(C)=O)ccc1OCc1cccnc1 (stereo not shown) [Compound Z396609184]  First screening IR (inhibition rate)          %                7
 5  COc1ccc(CCNC(=O)Cn2c(CN3CCOCC3)nc3sc4c(c3c2=O)CCC(C)C4)cc1 (stereo not shown) [Compound Z56952971]  First screening IR (inhibition rate)          %              -10
 6  Cc1cccc(=O)n1CCCCNc1cnc2ccccc2n1 [Compound Z1084012684]  First screening IR (inhibition rate)          %               10
 7  O=C(CCc1ccc(-c2ccccc2F)o1)Nc1cccc(NC(=O)CCn2ccnc2)c1 [Compound Z431623528]  First screening IR (inhibition rate)          %                5
 8  COc1ccc(CCN2CC(C(=O)Nc3c(-c4ccccc4)nc4ccc(C)cn34)CC2=O)cc1OC (stereo not shown) [Compound Z70997275]  First screening IR (inhibition rate)          %              -15
 9  COc1cccc(-c2cc(-c3ccc(C)cc3)c3ccccc3n2)c1 [Compound Z1664164245]  First screening IR (inhibition rate)          %              -18
10  COC1CCC(N(C)c2ncc(C(=O)N3CCOCC3)cc2Cl)CC1 (stereo not shown) [Compound Z1212734184]  First screening IR (inhibition rate)          %               -2
11  Cl.Fc1ccc(-c2cc(-c3ccccc3)c3cc(Cl)ccc3n2)cc1 [Compound Z48950786]  First screening IR (inhibition rate)          %               -4
12  O=C(CN1CCN(C(=O)c2oc3ccccc3c2CSc2nccc(=O)[nH]2)CC1)N1CCCCC1 [Compound Z915764402]  First screening IR (inhibition rate)          %              -15
13  Cc1ccc(NC2CCN(Cc3ccncc3)CC2)c(CN(C)C)c1 [Compound Z1642185485]  First screening IR (inhibition rate)          %                2
14  CC(=O)Nc1ccc(/C=N/Nc2ncnc3cc(-c4ccc(F)cc4)sc23)cc1 [Compound Z50080181]  First screening IR (inhibition rate)          %               51
15  CCS(=O)(=O)c1ccc(S(=O)(=O)N2CCCSCC2)cc1 [Compound Z736543988]  First screening IR (inhibition rate)          %               32
16  CC(C)N(CCNC(=O)CCc1nnc2n(Cc3ccccc3)c(=O)c3ccccc3n12)Cc1ccco1 [Compound Z1169067733]  First screening IR (inhibition rate)          %                3
